test system: Oryza sativa; experiment: Phytotoxicity against two-leaf stage Oryza sativa cv. Nihonbare (rice) planted 3 cm depth measured after […]; assay type: organism-based; conditions: in vivo
MTD values by entry
reported_endpoint: MTD (g/acre)

>>> print(df.to_string())
                   compound_structure_string  observed
 0  CC1=C(c2ccccc2)C(=O)N(C(C)(C)c2nc3ccc(I)cc3s2)C1        10
 1  CC1=C(c2ccccc2)C(=O)N(C(C)(C)c2nc(C(C)(C)C)cs2)C1        10
 2  CC1=C(c2ccc(F)cc2)C(=O)N(C(C)(C)c2nc3ccccc3s2)C1        20
 3  COc1ccccc1C1=C(C)CN(C(C)(C)c2nc3ccccc3s2)C1=O         5
 4  CC1=C(c2ccccc2)C(=O)N(C(C)(C)c2nc3ccc(C)cc3s2)C1        20
 5  CC1=C(c2cccc(F)c2)C(=O)N(C(C)(C)c2nc3ccccc3s2)C1        20
 6  CC1=C(c2ccccc2)C(=O)N(C(C)(C)c2nc3ccccc3o2)C1        20
 7  CC1=C(Oc2ccccc2)C(=O)N(C(C)(C)c2nc3ccccc3s2)C1        40
 8  CC1=C(c2ccccc2)C(=O)N(C(C)(C)c2ncc(C(F)(F)F)cc2Cl)C1        20
 9   CC1=C(c2ccccc2)C(=O)N(C(C)(C)c2ccsc2)C1        40
10  CC1=C(c2ccccc2F)C(=O)N(C(C)(C)c2nc3ccccc3s2)C1        10
11  CC1=C(c2ccccc2C#N)C(=O)N(C(C)(C)c2nc3ccccc3s2)C1         5
